# Target Of Assay: recombinant full-length USP7 (Homo sapiens, UniProt Q93009)
# Construct: A 25 μl reaction volume containing recombinant full-length USP7 (62 pM)
# Sequence (Q93009 whole entry): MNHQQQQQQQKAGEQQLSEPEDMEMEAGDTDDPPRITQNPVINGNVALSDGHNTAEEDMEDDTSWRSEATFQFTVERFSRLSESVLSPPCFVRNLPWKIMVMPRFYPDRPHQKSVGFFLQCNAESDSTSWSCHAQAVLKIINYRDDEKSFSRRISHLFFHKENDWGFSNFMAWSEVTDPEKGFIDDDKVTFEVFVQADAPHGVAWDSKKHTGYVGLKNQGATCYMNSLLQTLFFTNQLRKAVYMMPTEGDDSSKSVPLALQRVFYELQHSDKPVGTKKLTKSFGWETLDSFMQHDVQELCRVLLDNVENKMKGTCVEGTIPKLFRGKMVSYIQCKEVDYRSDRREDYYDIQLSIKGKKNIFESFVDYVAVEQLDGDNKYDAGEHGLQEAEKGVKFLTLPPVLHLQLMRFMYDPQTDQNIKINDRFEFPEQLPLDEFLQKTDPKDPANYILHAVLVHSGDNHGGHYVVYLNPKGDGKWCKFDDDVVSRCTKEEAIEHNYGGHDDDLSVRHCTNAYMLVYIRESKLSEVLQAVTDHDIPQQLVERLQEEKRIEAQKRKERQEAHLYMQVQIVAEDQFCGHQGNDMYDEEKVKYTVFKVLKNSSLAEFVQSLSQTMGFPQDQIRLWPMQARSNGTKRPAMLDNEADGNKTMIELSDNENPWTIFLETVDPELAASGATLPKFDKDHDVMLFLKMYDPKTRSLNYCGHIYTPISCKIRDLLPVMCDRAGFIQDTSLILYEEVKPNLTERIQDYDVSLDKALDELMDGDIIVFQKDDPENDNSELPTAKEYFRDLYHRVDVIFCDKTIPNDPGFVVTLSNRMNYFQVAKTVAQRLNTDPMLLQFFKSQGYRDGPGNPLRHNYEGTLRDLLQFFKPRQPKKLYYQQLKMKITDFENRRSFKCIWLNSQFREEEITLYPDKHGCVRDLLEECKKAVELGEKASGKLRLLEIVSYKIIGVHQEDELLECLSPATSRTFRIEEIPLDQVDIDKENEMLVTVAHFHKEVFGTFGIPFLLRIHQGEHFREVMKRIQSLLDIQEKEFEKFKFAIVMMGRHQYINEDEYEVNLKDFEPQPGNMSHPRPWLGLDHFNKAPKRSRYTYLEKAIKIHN
# Experimental Details: USP7-mediated ubiquitin-rhodamine cleavage assay
# Format: biochemical
# Test Conditions: recombinant full-length USP7 62 pM; ubiquitin-rhodamine 100 nM; 30-minute incubation with compound, 1 hour reaction at room temperature; read-out: Potency: USP7 IC50
pIC50: −log10 of the molar value.
Measure: pIC50

Enquiry: Fill in pIC50 for record Cc1cc(Cl)cc(-c2ccnc3cc(CN4C(=O)C5CC5C4=O)sc23)c1OC1CCNCC1 (centres unmarked)
Return: > 6.00

Measured values drawn from patent US10722514B2 for this set.
